Data credit: PubChem BioAssay (NCI)

test system: NCI-H322M lung; assay: NCI-60 one-dose screen, 48 h (100 = growth as untreated, 0 = no growth, -100 = all killed); conditions: 10 µM
About 83,000 compounds went through this panel and 20% of them were active in at least one assay; those are over-represented in the sample as a whole.
metric.name: growth (%)
# number only, unit % dropped from output

Below, each entry is followed by its recorded growth result.
>>> measured_number("c1ccc(C(=C(c2ccc(OCCN3CCCCC3)cc2)c2ccc(OCCN3CCCCC3)cc2)C2CCCC2)cc1")
39.8
>>> measured_number("COc1ccc2[nH]c(=O)c(CSc3ccc(Nc4nccc(-c5ccc(Cl)cc5)n4)cc3)cc2c1")
95.7
>>> measured_number("COc1ccc(C(=O)CSc2nnc(-c3c[nH]c4ccccc34)n2-c2ccccc2)cc1")
58.3

Lookup: Quick check: growth of CC[C@@]1(O)C(=O)OCc2c1cc1n(c2=O)Cc2c-1nc1cc(F)c(C)c3c1c2[C@@H](N)CC3 ?
Found: 0.642

Lookup: I am curious: what growth value has been reported for COc1ccc2c3nc4cc(C)c(C)cc4nc3n(CCN(C)C)c2c1 ?
Found: 0.682

Lookup: Could you tell me which growth is on file for Cc1cc(C)nc(NS(=O)(=O)c2ccc(N/C(N)=N/c3nccc(-c4cccs4)n3)cc2)n1 ?
Found: 95.6

Lookup: Tell me the measured growth of COc1cccc2nc(Nc3cccc(NC(=O)c4ccc(CN5CCCN(C)CC5)c(C(F)(F)F)c4)c3)ccc12 , please.
Found: -100

Lookup: Bench note: what growth did O=C(N/N=C/c1ccc(-c2cccc([N+](=O)[O-])c2)o1)c1[nH]c2ccc(Br)cc2c1-c1ccccc1 show?
Found: 54
